Target: Progesterone receptor (Homo sapiens) (UniProt P06401)
Sequence (P06401 whole entry, looked up): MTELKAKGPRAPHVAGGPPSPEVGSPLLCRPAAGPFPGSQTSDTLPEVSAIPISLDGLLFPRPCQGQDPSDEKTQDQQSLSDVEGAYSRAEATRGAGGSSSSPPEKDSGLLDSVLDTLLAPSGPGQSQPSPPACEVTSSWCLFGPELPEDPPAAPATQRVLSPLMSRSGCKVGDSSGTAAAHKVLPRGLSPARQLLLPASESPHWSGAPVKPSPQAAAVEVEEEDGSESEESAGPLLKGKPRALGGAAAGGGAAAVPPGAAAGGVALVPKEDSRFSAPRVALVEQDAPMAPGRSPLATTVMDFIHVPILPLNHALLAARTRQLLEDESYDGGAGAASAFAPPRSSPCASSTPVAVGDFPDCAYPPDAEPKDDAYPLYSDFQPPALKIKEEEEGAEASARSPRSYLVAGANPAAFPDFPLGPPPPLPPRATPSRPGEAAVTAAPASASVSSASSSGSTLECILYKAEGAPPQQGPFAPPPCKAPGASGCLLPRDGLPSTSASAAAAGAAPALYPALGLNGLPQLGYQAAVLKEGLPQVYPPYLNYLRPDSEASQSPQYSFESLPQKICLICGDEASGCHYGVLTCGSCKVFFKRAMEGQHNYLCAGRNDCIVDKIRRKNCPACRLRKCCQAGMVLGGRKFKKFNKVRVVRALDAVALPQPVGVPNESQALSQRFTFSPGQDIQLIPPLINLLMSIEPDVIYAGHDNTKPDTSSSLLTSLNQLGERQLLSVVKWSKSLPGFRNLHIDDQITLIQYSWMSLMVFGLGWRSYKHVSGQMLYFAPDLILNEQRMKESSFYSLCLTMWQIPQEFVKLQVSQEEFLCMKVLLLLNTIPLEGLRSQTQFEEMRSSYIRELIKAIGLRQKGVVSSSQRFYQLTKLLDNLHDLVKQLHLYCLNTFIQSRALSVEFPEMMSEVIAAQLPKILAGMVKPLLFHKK
Assay: qHTS assay to identify small molecule antagonists of the progesterone receptor (PR) signaling pathway (AID 1346795); also: % is scaled to controls: 0 for no effect and ±100 for the full control effect
Settings: PR-UAS-bla HEK293T, beta-lactamase FRET ratio, 16 h; series mostly up to 92.4 µM
Records with an inconclusive call do not appear. Activity calls are given as the source filed them. Calls follow the shape of the dose curve; as a rule, active = well fitted inhibition curve with a large enough effect in the signal ratio in the repeat runs (not every such curve was filed as active); inconclusive = weak or mixed curves; inactive = flat fitted curve, though single readings scatter; the % refers to the signal ratio.
Lab note: assign the record to one of Yes = active, No = inactive

Ask: Tell me the assay call for CCOC(=O)OC(=O)OCC please.
Reply: No

###

Experiment: qHTS assay to identify small molecule antagonists of the progesterone receptor (PR) signaling pathway - cell viability counter screen (AID 1346798);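 also: HEK293T PR-UAS-bla cells stimulated with the agonist R5020; % is scaled to controls: 0 for no effect and ±100 for the full control effect; nearly all actives have a fitted effect of over 50% in size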
Details: PR-UAS-bla HEK293T viability, CellTiter-Glo luminescence, 16 h; series mostly up to 92.4 µM
Results filed as inconclusive are left out. The source made the active and inactive calls. Calls come from the whole dose curve; as a rule, active = well fitted cell-killing curve with a large enough effect in the repeat runs; inconclusive = weak or mixed curves, or effect the other way; inactive = no such curve, though single readings can be large or run the other way.
// reported activity change, negative = cytotoxicity per item

A selection of reference data follows.
[
  {
    "MOLECULE": "COc1cc(C(C)C)ccc1C",
    "RESULT": "-15.7% [at 18.9 µM] (inactive)"
  },
  {
    "MOLECULE": "C=C[Si](C)(C)Cl",
    "RESULT": "-4.28% [at 8.39 µM] (inactive)"
  },
  {
    "MOLECULE": "CCCCCCCCCCCCS(=O)(=O)Cl",
    "RESULT": "-16% [at 18.9 µM] (inactive)"
  },
  {
    "MOLECULE": "C=CC(=O)OCCOC1C2CCC1C1CC=CC12 (stereo unspecified)",
    "RESULT": "13.6% [at 18.9 µM] (inactive)"
  },
  {
    "MOLECULE": "O=C(O)CN(CCCN(CC(=O)O)CC(=O)O)CC(=O)O",
    "RESULT": "-17.6% [at 18.9 µM] (inactive)"
  }
]

Could you now consider this next molecule?
Ask: Give its activity change, negative = cytotoxicity value. Item: CCCCNc1ccc(NCCCC)c2c1C(=O)c1ccccc1C2=O
Reply: -7.34% [at 18.9 µM] (inactive)

###

Test: qHTS RealTime-Glo MT Cell Viability Assay in HepG2 cells - 8 hour (AID 1224873); also: % is scaled to controls: 0 for no effect and ±100 for the full control effect; nearly all actives have a fitted effect of over 55% in size
Conditions: RealTime-Glo luminescence; series mostly up to 76.8 µM
Source text: National Center for Advancing Translational Sciences [NCATS] NIH Chemical Genomics Center [NCGC] U.S. Environmental Protection Agency [EPA] National Institutes of Environmental Health Sciences [NIEHS] National Toxicology Program [NTP] U.S. Food and Drug Administration [FDA] Measure of cell viability is critical in the cell-base assay. Analysis of cell viability is necessary for the characterization of cell responses to cytotoxic drugs and environmental stress. […]
Inconclusive results are not listed. Calls of active or inactive are those of the source. Calls come from the whole dose curve; as a rule, active = well fitted cell-killing curve with a large enough effect in the repeat runs; inconclusive = weak or mixed curves; inactive = flat fitted curve, though single readings scatter.
Lab note: assign the record to one of active, inactive

Worked examples follow.
[
  {
    "COMPOUND": "c1ccc(-c2nc3ccccc3[nH]2)cc1",
    "GROUP LABEL": "inactive"
  },
  {
    "COMPOUND": "CCOc1nc(F)cc2nc(S(=O)(=O)Nc3c(Cl)cccc3C(=O)OC)nn12",
    "GROUP LABEL": "inactive"
  },
  {
    "COMPOUND": "O=C1OC(=O)c2cc(-c3ccc4c(c3)C(=O)OC4=O)ccc21",
    "GROUP LABEL": "inactive"
  },
  {
    "COMPOUND": "CCOC=C(C(=O)OCC)C(=O)OCC",
    "GROUP LABEL": "inactive"
  },
  {
    "COMPOUND": "S=C1NC=NC2N=CNC12 (stereo not drawn)",
    "GROUP LABEL": "inactive"
  }
]

Now take the following compound into account.
Ask: Tell me the assay call for Clc1nc(C(Cl)(Cl)Cl)c(Cl)c(Cl)c1Cl please.
Reply: inactive
